Method Description: Cytotoxic Profiling in NIH 3T3 Cell Line of Diverse Libraries Using Quantitative High-Throughput Screening; note: nearly all actives have a fitted effect of over 55% in size
Assay Setup: NIH 3T3 viability, CellTiter-Glo ATP luminescence, 48-72 h; series mostly up to 96.7 µM
Hit rate of the full screen: of about 94,000 compounds, about 4,000 (4.3%) were called active. Inconclusive results (about 29%) are left out. Calls come from the whole dose curve; as a rule, active = well fitted inhibition curve with a large enough effect; inconclusive = small, poorly fitted or top-dose-only effect; inactive = no such curve, though single readings can be large or run the other way. The sample as a whole holds a higher share of actives than the screen did.
Pick one: 1 (yes) = active, 0 (no) = inactive

Before answering, review these 3 worked examples.
[
  {
    "Compound": "O=Cc1ccccc1-c1ccc(O)cc1",
    "Group": "1 (yes)"
  },
  {
    "Compound": "CN(C)CCNC(=O)c1nc2nc(-c3ccccc3)c(-c3cccc(F)c3)cc2n1C",
    "Group": "1 (yes)"
  },
  {
    "Compound": "Cc1noc(C)c1[S+](=O)([O-])N1CCC2(CC1)C(=O)NN=C2c1cccnc1",
    "Group": "0 (no)"
  }
]

Answer briefly: the call reported for "COc1ccc(C(=O)N2C[C@@H](CO)[C@H](c3ccncc3)C2)cc1F" in this assay.
0 (no)
